Test: Dog PK study #1 (Compound A IV and PO, propylene glycol formulation)
Type: in vivo, beagle dogs
Settings: beagle, dog, plasma, iv, 1 mg/kg, IV 1 mg/kg, 2 h; individual animals; read-out: Plasma concentration
reported.endpoint: concentration at 2 h (µg/mL)
Enter your answer as a number in µg/mL; do not include the unit.

The recorded concentration at 2 h for entry Cn1cc(-c2ccccc2)c(-c2cn(C)c(=O)c3[nH]c(-c4cnn(C(F)(F)F)c4)cc23)cc1=O [Compound A] equals 0.594

----------
Test: Dog PK study #2 (Compound A IV, HPBCD formulation)
Format: in vivo, beagle dogs
Details: beagle, dog, plasma, iv, 1 mg/kg, IV 1 mg/kg, HPBCD formulation; mean
reported.endpoint: half-life (h)
Enter your answer as a number in h; do not include the unit.

The recorded half-life for entry Cn1cc(-c2ccccc2)c(-c2cn(C)c(=O)c3[nH]c(-c4cnn(C(F)(F)F)c4)cc23)cc1=O equals 7.9

----------
Molecular target: BRD4 BD2 (Homo sapiens, UniProt O60885)
Construct: HEK293 cells were transfected using NanoLuc-BRD4-BD1 or NanoLuc-BRD4-BD2 fusion vectors
Assay: NanoBRET bromodomain assay, NanoLuc-BRD4-BD2 in HEK293 cells
IC50 reference

Worked set:
Cn1cc(-c2ccccc2C(F)F)c(-c2cn(C)c(=O)c3[nH]c(-c4ccc(F)cc4F)cc23)cc1=O	200 to 1000 nM
Cn1cc(-c2cccc(CN3CCNCC3)c2)c(-c2cn(C)c(=O)c3[nH]c(-c4cnn(C(F)(F)F)c4)cc23)cc1=O	> 1000 nM
CN(C)CCOc1cccc(-c2cn(C)c(=O)cc2-c2cn(C)c(=O)c3[nH]c(-c4cnn(C(F)(F)F)c4)cc23)c1	50 to 200 nM

The recorded IC50 for entry Cn1cc(-c2ccccc2)c(-c2cn(C)c(=O)c3[nH]c(-c4cnn(C(F)(F)F)c4)c(F)c23)cc1=O equals < 10 nM

----------
Assay: Dog PK study #4 (Compound A PO daily 14 days, 1/3/10 mg/kg; toxicokinetics, platelet counts)
Assay type: in vivo, beagle dogs
Settings: both sexes, beagle, dog, plasma, oral; after daily administration for 14 days, 10 mg/kg, Pooled Mean, 24 h
reported.endpoint: concentration at 24 h (ng/mL)
Enter your answer as a number in ng/mL; do not include the unit.

The recorded concentration at 24 h for entry Cn1cc(-c2ccccc2)c(-c2cn(C)c(=O)c3[nH]c(-c4cnn(C(F)(F)F)c4)cc23)cc1=O [Compound A] equals 103

----------
Assay: Dog PK study #2 (Compound A IV, HPBCD formulation)
Assay type: in vivo, beagle dogs
Details: beagle, dog, plasma, iv, 1 mg/kg, IV 1 mg/kg, HPBCD formulation, 0.5 h; mean; read-out: Average plasma concentration
reported.endpoint: concentration at 0.5 h (ng/mL)
Enter your answer as a number in ng/mL; do not include the unit.

The recorded concentration at 0.5 h for entry Cn1cc(-c2ccccc2)c(-c2cn(C)c(=O)c3[nH]c(-c4cnn(C(F)(F)F)c4)cc23)cc1=O [Compound A] equals 328

----------
Biological target: BRD4 BD2 (Homo sapiens, UniProt O60885)
Construct: HEK293 cells were transfected using NanoLuc-BRD4-BD1 or NanoLuc-BRD4-BD2 fusion vectors
Experiment: NanoBRET bromodomain assay, NanoLuc-BRD4-BD2 in HEK293 cells
Type: binding
Details: IC50 BD1/IC50 BD2; qualitative if an IC50 is at the upper limit
reported.endpoint: Fold Selectivity BRD4 BD1/BD2

Worked set:
Cc1cccc(C)c1Oc1cn(C)c(=O)cc1-c1cn(C)c(=O)c2[nH]c(-c3cnn(CC(F)(F)F)c3C)cc12	xx (Fold >50 and ≤200)
COc1cccc(-c2cc3c(-c4cc(=O)n(C)cc4Oc4c(C)cccc4C)cn(C)c(=O)c3[nH]2)c1F	xxxx (Fold >1000)
Cc1cccc(C)c1Oc1cn(C)c(=O)cc1-c1cn(C)c(=O)c2[nH]c(-c3cccc(C(F)(F)F)c3F)cc12	xx (Fold >50 and ≤200)
CSCc1cccc(-c2cn(C)c(=O)cc2-c2cn(C)c(=O)c3[nH]c(-c4cnn(C(F)(F)F)c4)cc23)c1	xxxx (Fold >1000)
Cn1cc(-c2ccccc2)c(-c2cn(C)c(=O)c3[nH]c(-c4cnn(C(F)(F)F)c4)cc23)cc1=O	xxxx (Fold >1000)

The recorded Fold Selectivity BRD4 BD1/BD2 for entry COCCOc1cccc(-c2cn(C)c(=O)cc2-c2cn(C)c(=O)c3[nH]c(-c4ccc(F)cc4F)cc23)c1 equals xxxx (Fold >1000)

The recorded Fold Selectivity BRD4 BD1/BD2 for entry Cn1cc(-c2cc(=O)n(CCOC(F)F)cc2-c2ccccc2)c2cc(-c3cnn(C(F)(F)F)c3)[nH]c2c1=O equals xxxx (Fold >1000)

The recorded Fold Selectivity BRD4 BD1/BD2 for entry Cc1cc(-c2cc3c(-c4cc(=O)n(C)cc4-c4ccc(S(C)(=O)=O)cc4)cn(C)c(=O)c3[nH]2)cc(C)n1 equals x (Fold >2 and ≤50)

The recorded Fold Selectivity BRD4 BD1/BD2 for entry Cn1cc(-c2cc(=O)n(C3CC(O)C3)cc2-c2ccccc2)c2cc(-c3cnn(C(F)(F)F)c3)[nH]c2c1=O (centres unmarked) equals x (Fold >2 and ≤50)

The recorded Fold Selectivity BRD4 BD1/BD2 for entry CN(C)CCOc1cccc(-c2cn(C)c(=O)cc2-c2cn(C)c(=O)c3[nH]c(-c4cnn(C(F)(F)F)c4)cc23)c1 equals xx (Fold >50 and ≤200)

The recorded Fold Selectivity BRD4 BD1/BD2 for entry Cn1cc(-c2ccccc2)c(-c2cn(C)c(=O)c3[nH]c(-c4ccc(S(C)(=O)=O)cc4)cc23)cc1=O equals xxxx (Fold >1000)
